meta.source: patent US6458943

Target: T1, hD53 bait (GAL4 DNA-binding domain fusion, pAS2-1hD53) (human, UniProt P04386 1-147 (Saccharomyces cerevisiae entry))
T1 construct: Fusion expressed in yeast; also called full-length hD53 bait
Experiment: yeast two-hybrid, Y190 co-transfectants, HIS3/lacZ reporters; interactor (GAL4-AD fusion) against bait (GAL4-DB fusion)
metric_name: binding result

[[record]]
binder = "hD54-ins2 interactor (GAL4 activation domain fusion, pACT2hD54-ins2) (other, range 768-881) ANFNQSGNIADSSLSFTFTNSSNGPNLITTQTNSQALSQPIASSNVHDNFMNNEITASKIDDGNNSKPLSPGWTDQTAYNAFGITTGMFNTTTMDDVYNYLFDDEDTPPNPKKEMDSAGQDINLNSPNKGLLSDSMTDVPVDTGVAARTPAVEGLTEAEEEELRAELTKVEEEIVTLRQVLAAKEKHCGELKRRLGLSTLGELKQNLSRSWHDVQVSSAYKKTQETLSQAGQKTSAALSTVGSAISRKLGDMRNSATFKSFEDRVGTIKSKVVGDRENGSDNLPSSAGSGDKPLSDPAPF"
measurement = "binds"

[[record]]
binder = "hD53 interactor (GAL4 activation domain fusion, pACT2hD53) (other, range 768-881) ANFNQSGNIADSSLSFTFTNSSNGPNLITTQTNSQALSQPIASSNVHDNFMNNEITASKIDDGNNSKPLSPGWTDQTAYNAFGITTGMFNTTTMDDVYNYLFDDEDTPPNPKKEMEAQAQGLLETEPLQGTDEDAVASADFSSMLSEEEKEELKAELVQLEDEITTLRQVLSAKERHLVEIKQKLGMNLMNELKQNFSKSWHDMQTTTAYKKTHETLSHAGQKATAAFSNVGTAISKKFGDMSYSIRHSISMPAMRNSPTFKSFEERVETTVTSLKTKVGGTNPNGGSFEEVLSSTAHASAQSLAGGSRRTKEEELQC"
measurement = "binds"

[[record]]
binder = "hD54+ins2 interactor (GAL4 activation domain fusion, pACT2hD54+ins2) (other, range 768-881) ANFNQSGNIADSSLSFTFTNSSNGPNLITTQTNSQALSQPIASSNVHDNFMNNEITASKIDDGNNSKPLSPGWTDQTAYNAFGITTGMFNTTTMDDVYNYLFDDEDTPPNPKKEMDSAGQDINLNSPNKGLLSDSMTDVPVDTGVAARTPAVEGLTEAEEEELRAELTKVEEEIVTLRQVLAAKEKHCGELKRRLGLSTLGELKQNLSRSWHDVQVSSAYVKTSEKLGEWNEKVTQSDLYKKTQETLSQAGQKTSAALSTVGSAISRKLGDMRNSATFKSFEDRVGTIKSKVVGDRENGSDNLPSSAGSGDKPLSDPAPF"
measurement = "binds"

